Here, each record is paired with measured IC50 data.
Tested on: BxPC-3
Assay: IC50 of chemotherapy treatments, WST1 viability assay
Format: cell-based, Human
Conditions: treatments added 24 h after seeding, left 72 h, normalized so that highest inhibition is 100%
I only need the number, in nM, no unit after it.

These solved cases illustrate the format of a correct answer.
[[record]]
molecule = "N.N.[Cl][Pt][Cl] [Cisplatin]"
measured_on = "BxPC-3"
quantity_name = "IC50"
measurement_units = "nM"
test_value = 1410

[[record]]
molecule = "O=C1[O][Pt]2([NH][C@@H]3CCCC[C@H]3[NH]2)[O]C1=O [Oxaliplatin]"
measured_on = "BxPC-3"
quantity_name = "IC50"
measurement_units = "nM"
test_value = 760


Continue with the next molecule.
Could you tell me which IC50 is on file for O=c1[nH]cc(F)c(=O)[nH]1 [5-FU] ? 121
